# Tested on: Male Sprague-Dawley Rats
# ASSAY_DETAILS: Serum clinical chemistries in male Sprague-Dawley rats
# Type: in vivo
# ASSAY_CONDITIONS: rat serum, 0.3% in diet, 4 days, N = 5
READOUT: ALP (alkaline phosphatase), percent of control (%)
Field: numeric (%). Do not append units.

Q. Tell me reported ALP (alkaline phosphatase), percent of control for CC(C)=CCC[C@H](C)CCOc1cc(C(C)(C)C)c(O)c(C(C)(C)C)c1 [103,294] , tested with Male Sprague-Dawley Rats.
A. 124

Q. Field entry: CC(C)=CCC[C@@H](C)CCOc1cc(C(C)(C)C)c(O)c(C(C)(C)C)c1 [104,535]
A. 151

Q. Field entry: CC(C)CCCC(C)CCOc1ccc(O)c(C(C)(C)C)c1 (centres unmarked) [104,191]
A. 81

Q. Field entry: CC(C)=CCC[C@H](C)CCOc1ccc(O)c(C(C)(C)C)c1 [103,649]
A. 74

Q. Field entry: CC(C)=CCC[C@H](C)CCSc1ccc(O)c(C(C)(C)C)c1 [103,714]
A. 111
